# pKd per record follows
measuredTarget: T1, human CDH17 as originally expressed in cells (cell surface CDH17 on AsPC1, GP2d and other cancer cell lines) (human, UniProt Q12864 23-832)
T1 construct: whole, on cells; Endogenous CDH17 on human cancer cell lines; AsPC1 and GP2d are named CDH17 positive; also called CDH17 positive AsPC1 cells; GP2d cells
procedureSummary: flow cytometry titration on CDH17 positive AsPC1 cells
pKd: −log10 of the molar value.
assayReadout: pKd

{"binder": "17F3 anti-CDH17 recombinant antibody (human IgG1) (antibody, V domains shown) VH: EVQLVESGGGLVKSGGSLRLSCAASGFTFSSYSLKWVRQAPGKGLEWVSSISSSSGYIYYADSVKGRFTISRDNAKNSLYLQMNSLRAEDTAMYYCARAVSTIAARPGYYYYYMDVWGKGTLVTVSS VL: DIQMTQSPSSVSASIGDRVTITCRASQDISTWFAWYQQKPGKAPKLLIYAASTLRSGVPSRFSGSGSGTDFTLTINSLQPEDFATYYCQQANSFPLTFGGGTKVEIKR", "observedValue": 9.13}
{"binder": "15A4 anti-CDH17 recombinant antibody (human IgG1) (antibody, V domains shown) VH: QVQLVESGGGVVQPGRSLRLSCAASGFNFSSYGMHWVRQAPGKGLEWVAFVWYDGSNQNYADSVKGRFTISRDNSNNTLYLQMNSLRAEDTAVYYCARDRYSSGWDVFDYWGQGTLVTVSS VL: DIQMTQSPSSVSASVGDRVTITCRASQGISSWLAWYQQKPGKAPKLLIFAASSLQSGVPSRFSGSGSGTGFTLTISSLQPEDFATYYCQQAKSFPPTFGQGTKVEIKR", "observedValue": 8.63}
{"binder": "19C7 anti-CDH17 recombinant antibody (human IgG1) (antibody, V domains shown) VH: QITLKESGPTLVKPTQTLTLTCTFSGISLSTGGVGVGWIRQPPGKALEWLSLIYWNDDKRYSPSLKSRLTITKDSSKNQVVLTMTNMDPVDTATYYCAHSGLAAPFYNWFDPWGQGTLVTVSS VL: DIQMTQSPSSLSASVGDRVTITCRASQSISNYLNWYQLKPGNAPKLLIFAASSLQSGVPSRFSGSGSGTDFTLTISSLQPEDFATYFCQRSYSTLTFGGGTKVEIKR", "observedValue": 9.89}
